- System Tested: T1, human CD40 on cells (human, UniProt P25942 21-277)
- T1 construct: whole, on cells; The cell line used is named in each row's assay; also called hCD40; TNFRSF5
- T1 sequence (P25942 21-277): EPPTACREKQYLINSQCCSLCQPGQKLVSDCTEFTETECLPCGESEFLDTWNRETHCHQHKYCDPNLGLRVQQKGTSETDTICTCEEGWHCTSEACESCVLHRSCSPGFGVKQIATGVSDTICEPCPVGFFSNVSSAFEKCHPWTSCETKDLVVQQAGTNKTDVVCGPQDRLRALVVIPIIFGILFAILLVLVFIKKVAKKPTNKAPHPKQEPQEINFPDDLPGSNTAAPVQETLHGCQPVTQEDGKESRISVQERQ
- Test Summary: FACS, Raji cells
- Text: Flow cytometry (FACS) was used to detect the binding ability of the CD40 antibody to cells, such as, CHO-K1/hCD40 highly expressing human CD40 (constructed by Beijing Kyinno Biotechnology), CHO-K1/cyCD40 highly expressing cynomolgus monkey CD40 (constructed by Beijing Kyinno Biotechnology) and lymphoma cell highly expressing human CD40, Raji (ATCC, #CCL-86). […]
Item-by-item account of Maximum MFI
Give the number; MFI is assumed, so skip it.

PR006510 (antibody, human IgG1, kappa, V domains shown, PR003379 variant L:S93R; human IgG1 L234A, L235A, G237A) VH: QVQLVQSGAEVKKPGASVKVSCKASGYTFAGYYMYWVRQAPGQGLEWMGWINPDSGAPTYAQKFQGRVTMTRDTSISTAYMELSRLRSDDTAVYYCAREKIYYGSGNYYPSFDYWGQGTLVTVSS VL: DIQLTQSPSFLSASVGDRVTITCRASQGISSYLAWYQQKPGKAPKLLIYAASTLQSGVPSRFSGSGSGTEFTLTISSLQPEDFATYYCQQLNRYPWTFGQGTKVEIKR; 12400
PR006513 (antibody, human IgG1, kappa, V domains shown, PR003379 variant L:S93Q; human IgG1 L234A, L235A, G237A) VH: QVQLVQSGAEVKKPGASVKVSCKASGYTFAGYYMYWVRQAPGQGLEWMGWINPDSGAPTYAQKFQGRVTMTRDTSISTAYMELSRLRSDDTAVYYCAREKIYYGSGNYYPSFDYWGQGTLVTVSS VL: DIQLTQSPSFLSASVGDRVTITCRASQGISSYLAWYQQKPGKAPKLLIYAASTLQSGVPSRFSGSGSGTEFTLTISSLQPEDFATYYCQQLNQYPWTFGQGTKVEIKR; 12000

Next binder, Maximum MFI to be filled in.
// recorded Maximum MFI for PR006495 (antibody, human IgG1, kappa, V domains shown, PR003379 variant L:N92A; human IgG1 L234A, L235A, G237A) VH: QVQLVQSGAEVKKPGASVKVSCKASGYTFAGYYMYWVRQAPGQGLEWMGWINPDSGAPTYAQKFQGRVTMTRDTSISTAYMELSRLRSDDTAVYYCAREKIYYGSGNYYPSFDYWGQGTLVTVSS VL: DIQLTQSPSFLSASVGDRVTITCRASQGISSYLAWYQQKPGKAPKLLIYAASTLQSGVPSRFSGSGSGTEFTLTISSLQPEDFATYYCQQLASYPWTFGQGTKVEIKR : 8870
